biological target: thromboxane receptor (TPαR) (Homo sapiens, UniProt P21731); construct: host or cells: HEK293; test: TPαR-mediated G12 activation at the PM, PDZRG-RlucII BRET; type: cell-based
Sequence (P21731 whole entry): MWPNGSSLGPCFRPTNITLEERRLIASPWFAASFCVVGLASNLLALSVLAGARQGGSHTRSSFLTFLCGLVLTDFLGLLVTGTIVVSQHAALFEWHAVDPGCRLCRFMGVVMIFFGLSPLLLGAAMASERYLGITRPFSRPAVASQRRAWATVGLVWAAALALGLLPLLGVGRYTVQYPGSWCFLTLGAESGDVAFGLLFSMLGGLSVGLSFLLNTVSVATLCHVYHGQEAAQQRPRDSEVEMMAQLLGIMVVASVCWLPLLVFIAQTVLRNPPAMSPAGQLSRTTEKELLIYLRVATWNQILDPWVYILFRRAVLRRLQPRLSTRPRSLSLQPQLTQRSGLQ
MEASURED PARAMETER: G12 activation, agonist character in words

INSERT INTO assay_data (compound_string, observed_measurement) VALUES
  ('CCCCC[C@H](O)/C=C/[C@H]1CC2CC(C2)[C@@H]1C/C=C\CCCC(=O)O', 'full agonists'),
  ('CCCCC[C@H](O)/C=C/[C@@H]1[C@@H](C/C=C\CCCC(=O)O)[C@H]2CO[C@@H]1C2', 'full agonists'),
  ('O=C(O)CCC/C=C\C[C@@H]1[C@@H](/C=C/[C@@H](O)COc2ccc(I)cc2)[C@H]2CC[C@@H]1O2', 'full agonists');
